- Tested on: B cell
- ASSAY_PROTOCOL: B cell proliferation
- Format: cell-based
READOUT_NAME: EC50

Some entries whose results are on file:
CC(=O)Nc1nc2cc(-c3nn(Cc4cc5cccc(C)c5c(=O)n4-c4ccccc4)c4ncnc(N)c34)ccc2o1 [Compound 253]    < 100 nM
Cc1cccc2cc(Cn3nc(/C=C4/SC(=O)NC4=O)c4c(N)ncnc43)n(-c3ccccc3F)c(=O)c12 [Compound 171]    < 100 nM
CC(=O)Nc1nc2ccc(-c3nn(Cc4cc5cccc(Cl)c5c(=O)n4C(C)C)c4ncnc(N)c34)cc2s1 [Compound 157]    < 100 nM

Per the records, this molecule ( COc1cc(-c2nn(Cc3cc4cccc(C)c4c(=O)n3-c3ccccc3F)c3ncnc(N)c23)ccc1Cl [Compound 22] ) has EC50 equal to < 10000 nM

Per the records, this molecule ( Cc1cccc2cc(Cn3nc(C#C[C@@H](C)O)c4c(N)ncnc43)n(-c3ccccc3O)c(=O)c12 [Compound 91] ) has EC50 equal to < 1000 nM

Per the records, this molecule ( CC(=O)Nc1nc2ccc(-c3nn(Cc4cc5cccc(C)c5c(=O)n4C4CCC4)c4ncnc(N)c34)cc2s1 [Compound 159] ) has EC50 equal to < 100 nM

Per the records, this molecule ( Cc1ccccc1-n1c(Cn2nc(-c3ccc4nc(N)[nH]c4c3)c3c(N)ncnc32)cc2cccc(C)c2c1=O [Compound 295] ) has EC50 equal to < 100 nM

* * *

- ASSAY_PROTOCOL: Clinical study in healthy adult subjects: pharmacokinetics
- Assay type: in vivo, human
- CONDITION_DETAILS: human, plasma, single oral dose 1 mg, mean (%CV), read-out: Vz/F
READOUT_NAME: Vd/F (L)
Respond with the bare value in L.

Per the records, this compound ( `C[C@H](Nc1ncnc2[nH]cnc12)c1cc2cccc(Cl)c2c(=O)n1-c1ccccc1` ) has Vd/F equal to 38.8

* * *

- ASSAY_PROTOCOL: Clinical study in healthy adult subjects: pharmacokinetics
- Format: in vivo, human
- CONDITION_DETAILS: human, plasma, oral, following a single dose, read-out: half-life
READOUT_NAME: half-life

Per the records, this molecule ( `C[C@H](Nc1ncnc2[nH]cnc12)c1cc2cccc(Cl)c2c(=O)n1-c1ccccc1` ) has half-life equal to 210 to 570 min

* * *

- System: B cell
- ASSAY_PROTOCOL: B cell proliferation
- Assay type: cell-based
pEC50: −log10 of the molar value.
READOUT_NAME: pEC50

Some entries whose results are on file:
Cc1cccnc1-n1c(Cn2nc(-c3cccc(O)c3)c3c(N)ncnc32)cc2cccc(C)c2c1=O    > 7.00
Cc1ccccc1-n1c(Cn2nc(-c3cccc(F)c3)c3c(N)ncnc32)cc2cccc(C)c2c1=O    > 6.00
Cc1cccc2cc([C@H](C)Nc3nc(F)nc4[nH]cnc34)n(-c3ccccc3)c(=O)c12    > 7.00

Per the records, this molecule ( `Cc1ccccc1-n1c(Cn2cnc3c(N)ncnc32)cc2cccc(C)c2c1=O` ) has pEC50 equal to > 5.00

Per the records, this molecule ( `Cc1cccnc1-n1c(Cn2nc(-c3cc(O)cc(F)c3)c3c(N)ncnc32)cc2ccccc2c1=O` ) has pEC50 equal to > 7.00

Per the records, this molecule ( `CC(C)n1c(Cn2nc(-c3cccc(O)c3)c3c(N)ncnc32)cc2cccc(Cl)c2c1=O` ) has pEC50 equal to > 7.00

Per the records, this molecule ( `Cc1ccccc1-n1c(Cn2nc(Cl)c3c(N)ncnc32)cc2cccc(C)c2c1=O` ) has pEC50 equal to > 6.00

Per the records, this molecule ( `CC(C)n1c(Cn2nc(-c3cccc(O)c3)c3c(N)ncnc32)cc2cccc(F)c2c1=O` ) has pEC50 equal to > 6.00
